- system: GlcNAc(b1-3)[GlcNAc(b1-6)]GalNAc
- assay_comment: glycan array binding signal (z-score within array); higher = stronger binding
- run_parameters: glycan notation: IUPAC condensed, linker removed
Only a selection was taken, and the strongest signals are over-represented in it overall.
measured_quantity: glycan array binding signal (z-score)

binder	measured_quantity	measurement
Surfactant Protein D (Human); Neck + Carbohydrate Recognition Domain (NCRD) (Homo sapiens) (protein) MLLFLLSALVLLTQPLGYLEAEMKTYSHRTMPSACTLVMCSSVESGLPGRDRDGREGPRGEKGDPGLPGAAGQAGMPGQAGPVGPKGDNGSVGEPGPKGDTGPSGPPGPPGVPGPAGREGALGKQGNIGPQGKPGPKGEAGPKGEVGAPGMQGSAGARGLAGPKGERGVPGERGVPGNTGAAGSAGAMGPQGSPGARGPPGLKGDKGIPGDKGAKGESGLPDVASLRQQVEALQGQVQHLQAAFSQYKKVELFPNGQSVGEKIFKTAQFVKPFTEAQLLCTQAGGQLASPRSAAENAALQQLVVAKNEAAFLSMTDSKTEGKFTYPTGESLVYSNWAPGEPNDDGGSEDCVEIFTNGKWNDRACGEKRLVVCEF	glycan array binding signal (z-score)	-0.258
UEA-I (Ulex europaeus), P22972 (protein) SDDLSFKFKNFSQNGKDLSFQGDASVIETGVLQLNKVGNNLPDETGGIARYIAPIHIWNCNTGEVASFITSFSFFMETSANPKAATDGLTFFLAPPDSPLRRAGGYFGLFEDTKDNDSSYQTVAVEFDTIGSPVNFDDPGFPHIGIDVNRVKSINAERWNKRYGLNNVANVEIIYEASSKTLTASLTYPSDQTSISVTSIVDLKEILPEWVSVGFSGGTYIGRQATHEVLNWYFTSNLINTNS	glycan array binding signal (z-score)	-0.17
Tectonin 2 (Laccaria bicolor) (protein) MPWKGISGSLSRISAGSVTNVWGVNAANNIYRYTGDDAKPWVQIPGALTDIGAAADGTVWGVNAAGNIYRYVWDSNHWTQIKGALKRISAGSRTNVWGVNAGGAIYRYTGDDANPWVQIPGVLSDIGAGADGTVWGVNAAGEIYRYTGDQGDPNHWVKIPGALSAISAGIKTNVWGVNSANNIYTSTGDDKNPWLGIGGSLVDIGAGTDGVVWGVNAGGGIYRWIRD	glycan array binding signal (z-score)	-0.21
LcH (Lens culinaris), P02870 (protein) TETTSFSITKFSPDQQNLIFQGDGYTGKEGLTLTKVSKETGGRALYSTPIHIWDRDTVNVANFVTNGSQVFRESPNGYNVADGFTFFIAPVDTKPQTGGGYLGVFYNGKEYDKTSQTVAVEFDTFYNAAWDPSNKERHIGIDVNSIKSVNTKSWNLQNGVTSYTLNEVVPLKDVVPEWVRIGFSATTGAEFAAQEVHSWSFNSQLGHTSKS	glycan array binding signal (z-score)	-0.082
Glycodelin A (Homo sapiens), P09466 (protein) MLCLLLTLGVALVCGVPAMDIPQTKQDLELPKLAGTWHSMAMATNNISLMATLKAPLRVHITSLLPTPEDNLEIVLHRWENNSCVEKKVLGEKTENPKKFKINYTVANEATLLDTDYDNFLFLCLQDTTTPIQSMMCQYLARVLVEDDEIMQGFIRAFRPLPRHLWYLLDLKQMEEPCRF	glycan array binding signal (z-score)	-0.397
PpFlo3 (Pichia pastoris) (protein) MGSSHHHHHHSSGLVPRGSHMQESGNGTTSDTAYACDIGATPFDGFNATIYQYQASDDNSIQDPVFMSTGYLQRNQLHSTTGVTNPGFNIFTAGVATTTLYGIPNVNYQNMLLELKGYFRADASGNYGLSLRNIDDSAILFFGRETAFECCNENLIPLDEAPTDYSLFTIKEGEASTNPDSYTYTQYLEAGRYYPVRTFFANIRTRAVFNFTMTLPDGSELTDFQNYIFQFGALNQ	glycan array binding signal (z-score)	1.75
